ASSAY_PROCEDURE: IRF3 reporter activation in THP-1 macrophages, cell-based, PMA-stimulated THP-1, luminescence (AID 1053176)
RUN_PARAMETERS: PMA-differentiated THP-1, IRF3 reporter luminescence; stronger effect = higher value
Active and inactive are the calls of the source. How the calls were made is not given here.
PROPERTY: fraction signal

| TEST_SMILES | PROPERTY | RESULT |
| --- | --- | --- |
| CCn1c(-c2nonc2N)nc2c(C#CC(C)(C)O)nc(O[C@@H](CN)c3ccccc3)cc21 | fraction signal | 0.0005 (inactive) |
| COc1cccc2c1c(C1=C(c3cn(C)c4ccccc34)C(=O)NC1=O)cn2C | fraction signal | -0.0155 (inactive) |
| COc1ccc2cc(-c3c(-c4ccncc4)nc(-c4ccc(S(C)(=O)=O)cc4C)n3C)ccc2c1 | fraction signal | 0.0025 (inactive) |
| CCn1c(-c2nonc2N)nc2c(C#CC(C)(C)O)ncc(OC[C@@H]3CCCN3)c21 | fraction signal | 0.0025 (inactive) |
| CCn1cc(-c2ccnc3[nH]ccc23)c(-c2cccc(NC(=O)Nc3ccc(OCc4ccccc4)cc3)c2)n1 | fraction signal | -0.0115 (inactive) |
| CC(C)(C)c1ccc(Oc2nccc(-c3c(-c4ccc(F)cc4)ncn3C3CCNCC3)n2)cc1 | fraction signal | 0 (inactive) |
| COc1cc(/C=N/Nc2ncnc3c2cnn3Cc2ccccc2)ccc1O | fraction signal | 0.0995 (inactive) |
| COc1cc(/C=N/Nc2ncnc3c2cnn3-c2ccccc2)ccc1O | fraction signal | -0.007 (inactive) |
| COc1ccc(CNC(=O)c2ccc(-c3cc(-c4nnc(C)o4)ccc3C)cc2)cc1 | fraction signal | -0.008 (inactive) |
| Cc1[nH]nc2c1N=C(c1ccccc1Cl)c1cc([N+](=O)[O-])ccc1N2 | fraction signal | -0.0135 (inactive) |
| CCOc1ccccc1CCN=C1NC(=O)C(=Cc2ccc3ncccc3c2)S1 | fraction signal | 0.031 (inactive) |
| Fc1ccc(Nc2nccc(-c3c(-c4ccc(C(F)(F)F)cc4)nn4ncccc34)n2)cc1F | fraction signal | 0.008 (inactive) |
| Nc1ccc(C#Cc2cncnc2Nc2ccc(OCc3cccc(F)c3)c(Cl)c2)cc1 | fraction signal | 0.001 (inactive) |
| Cn1cc(C2=C(c3cccc(Cl)c3)C(=O)NC2=O)c2ccccc21 | fraction signal | 0.0035 (inactive) |
| Cn1cc(C2=C(c3ccc(N)cc3)C(=O)NC2=O)c2ccccc21 | fraction signal | -0.005 (inactive) |
| C#Cc1cccc(Nc2ncnc3ccc(OCCCCNCCS(C)(=O)=O)cc23)c1 | fraction signal | 0.0175 (inactive) |
| FC(F)(F)c1cccc(Nc2nccc(-c3cnn4nc(-c5ccccc5)ccc34)n2)c1 | fraction signal | -0.0005 (inactive) |
| CS(=O)(=O)CCNCc1nc(-c2ccc3ncnc(Nc4ccc(OCc5cccc(C(F)(F)F)c5)cc4)c3c2)cs1 | fraction signal | -0.002 (inactive) |
